- assay notes: Self-assembly property of compound in water assessed as beta-sheet content
- Assay type: physicochemical
Provide the recorded Activity for the entries that follow.
Answer in %, number only, no unit symbol.

-- ask Please report Activity for the following molecule: `NCCCC[C@@H](N)C(=O)N[C@H](Cc1c[nH]c2ccccc12)C(=O)N[C@H](CCCCN)C(=O)N[C@H](Cc1c[nH]c2ccccc12)C(=O)N[C@H](CCCCN)C(=O)N1CCC[C@H]1C(=O)NCC(=O)N[C@H](CCCCN)C(=O)N[C@H](Cc1c[nH]c2ccccc12)C(=O)N[C@H](CCCCN)C(=O)N[C@H](Cc1c[nH]c2ccccc12)C(=O)N[C@H](CCCCN)C(N)=O`
-- reply 84.3

-- ask Answer with the recorded Activity of `NCCCC[C@@H](NC(=O)[C@H](N)Cc1c[nH]c2ccccc12)C(=O)N[C@H](Cc1c[nH]c2ccccc12)C(=O)N[C@H](CCCCN)C(=O)N[C@H](Cc1c[nH]c2ccccc12)C(=O)N1CCC[C@@H]1C(=O)NCC(=O)N[C@H](Cc1c[nH]c2ccccc12)C(=O)N[C@H](CCCCN)C(=O)N[C@H](Cc1c[nH]c2ccccc12)C(=O)N[C@H](CCCCN)C(=O)N[C@H](Cc1c[nH]c2ccccc12)C(N)=O` only.
-- reply 30.5

-- ask // Input: `NCCCC[C@@H](NC(=O)[C@H](N)Cc1c[nH]c2ccccc12)C(=O)N[C@H](Cc1c[nH]c2ccccc12)C(=O)N[C@H](CCCCN)C(=O)N[C@H](Cc1c[nH]c2ccccc12)C(=O)N1CCC[C@H]1C(=O)NCC(=O)N[C@H](Cc1c[nH]c2ccccc12)C(=O)N[C@H](CCCCN)C(=O)N[C@H](Cc1c[nH]c2ccccc12)C(=O)N[C@H](CCCCN)C(=O)N[C@H](Cc1c[nH]c2ccccc12)C(N)=O` . Output its Activity only.
-- reply 63.8

-- ask Please report the measured Activity for `NCCCC[C@@H](N)C(=O)N[C@H](Cc1c[nH]c2ccccc12)C(=O)N[C@H](CCCCN)C(=O)N[C@H](Cc1c[nH]c2ccccc12)C(=O)N[C@H](CCCCN)C(=O)N1CCC[C@@H]1C(=O)NCC(=O)N[C@H](CCCCN)C(=O)N[C@H](Cc1c[nH]c2ccccc12)C(=O)N[C@H](CCCCN)C(=O)N[C@H](Cc1c[nH]c2ccccc12)C(=O)N[C@H](CCCCN)C(N)=O`
-- reply 35

* * *

Consider the following compounds; for each one, report its MIC.
- Tested on: Klebsiella pneumoniae
- assay notes: Antibacterial activity against Klebsiella pneumoniae ATCC 700603 incubated for 18 hrs by broth microdilution method
- Assay type: functional
Could you kindly put the unit after your number?

-- ask Read the entry `NCCCC[C@@H](N)C(=O)N[C@H](Cc1c[nH]c2ccccc12)C(=O)N[C@H](CCCCN)C(=O)N[C@H](Cc1c[nH]c2ccccc12)C(=O)N[C@H](CCCCN)C(=O)NCC(=O)NCC(=O)N[C@H](CCCCN)C(=O)N[C@H](Cc1c[nH]c2ccccc12)C(=O)N[C@H](CCCCN)C(=O)N[C@H](Cc1c[nH]c2ccccc12)C(=O)N[C@H](CCCCN)C(N)=O` and write its reported MIC.
-- reply 16 µM

-- ask Look up and state reported MIC for `O=C(O)c1cn(C2CC2)c2cc(N3CCNCC3)c(F)cc2c1=O`
-- reply 8 µM

-- ask Consider the compound `CO/N=C(\C(=O)N[C@@H]1C(=O)N2C(C(=O)O)=C(COC(C)=O)CS[C@H]12)c1csc(N)n1` and give its recorded MIC.
-- reply 4 µM

-- ask Check the records and state MIC for `NC[C@H]1O[C@H](O[C@H]2[C@H](O)[C@@H](O[C@H]3O[C@H](CO)[C@@H](O)[C@H](N)[C@H]3O)[C@H](N)C[C@@H]2N)[C@H](O)[C@@H](O)[C@@H]1O`
-- reply 64 µM

-- ask Read the entry `NCCCC[C@@H](NC(=O)[C@H](N)Cc1c[nH]c2ccccc12)C(=O)N[C@H](Cc1c[nH]c2ccccc12)C(=O)N[C@H](CCCCN)C(=O)N[C@H](Cc1c[nH]c2ccccc12)C(=O)N1CCC[C@H]1C(=O)NCC(=O)N[C@H](Cc1c[nH]c2ccccc12)C(=O)N[C@H](CCCCN)C(=O)N[C@H](Cc1c[nH]c2ccccc12)C(=O)N[C@H](CCCCN)C(=O)N[C@H](Cc1c[nH]c2ccccc12)C(N)=O` and write its reported MIC.
-- reply 8 µM
